- tested on: IRAK-4 (Homo sapiens, UniProt Q9NWZ3)
- Sequence (Q9NWZ3 whole entry): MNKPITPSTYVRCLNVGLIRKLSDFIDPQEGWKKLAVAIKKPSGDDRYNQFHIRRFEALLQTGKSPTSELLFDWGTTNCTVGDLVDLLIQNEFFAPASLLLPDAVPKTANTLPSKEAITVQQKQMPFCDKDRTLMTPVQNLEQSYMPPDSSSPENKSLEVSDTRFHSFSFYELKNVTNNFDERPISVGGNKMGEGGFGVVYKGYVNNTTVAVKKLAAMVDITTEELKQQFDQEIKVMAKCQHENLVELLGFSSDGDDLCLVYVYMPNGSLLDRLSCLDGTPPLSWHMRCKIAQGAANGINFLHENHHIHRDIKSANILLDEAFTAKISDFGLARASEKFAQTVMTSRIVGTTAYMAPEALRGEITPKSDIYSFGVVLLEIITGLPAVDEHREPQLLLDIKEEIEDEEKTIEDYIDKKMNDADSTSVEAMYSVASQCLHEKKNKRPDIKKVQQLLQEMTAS
- method description: IRAK-4 ELISA, PBMC degradation
- Type: cell-based
- Parameters: endogenous in cells; host or cells: PBMC
- reported conditions: treated overnight
observation type: DC50

Worked cases, DC50 given:
compound: CC(C)(C1CCN(c2ccc3c(c2)C(=O)N(C2CCC(=O)NC2=O)C3=O)CC1)N1CCC(n2cc3cc(NC(=O)c4cnn5cccnc45)c(OCC4CC4)cc3n2)CC1 (stereo not shown) [Example 230]
observation type: DC50
experimental result: 1 to 5 nM

compound: COc1cc2nn([C@H]3CC[C@H](N(C)C4CN(c5ccc6c(c5)C(=O)N(C5CCC(=O)NC5=O)C6=O)C4)CC3)cc2cc1NC(=O)c1cnn2cccnc12 (stereo partly shown) [Example 334]
observation type: DC50
experimental result: < 1 nM

compound: CCN(C1CCC(N2Cc3cc(NC(=O)c4cnn5cccnc45)c(OC(C)C)cc3C2=O)CC1)C1CN(c2ccc3c(c2)CN(C2CCC(=O)NC2=O)C3=O)C1 (stereo not shown) [Example 330]
observation type: DC50
experimental result: < 1 nM

compound: O=C1CCC(N2C(=O)c3ccc(N4CC(F)(CN5CCC(N6Cc7cc(NC(=O)c8cnn9cccnc89)c(OCC8CC8)cc7C6=O)CC5)C4)cc3C2=O)C(=O)N1 (stereo not shown) [Example 89]
observation type: DC50
experimental result: 1 to 5 nM

compound: O=C1CCC(N2C(=O)c3ccc(N4CCC(O)(CN5CCC(n6cc7cc(NC(=O)c8cnn9cccnc89)c(OCC8CC8)cc7n6)CC5)CC4)cc3C2=O)C(=O)N1 (stereo not shown) [Example 257]
observation type: DC50
experimental result: 1 to 5 nM

compound: CC(C)Oc1nc2c(cc1NC(=O)c1cnn3cccnc13)CN(C1CCN(CC3CCN(c4ccc5c(c4)C(=O)N(C4CCC(=O)NC4=O)C5=O)CC3)CC1)C2=O (stereo not shown) [Example 46]
observation type: DC50
experimental result: 1 to 5 nM

compound: O=C1CCC(N2Cc3cc(N4CCC(F)(CN5CCC(n6cc7cc(NC(=O)c8cnn9cccnc89)c(OCC8CC8)cc7n6)CC5)CC4)ccc3C2=O)C(=O)N1 (stereo not shown) [Example 278]
observation type: DC50
experimental result: < 1 nM

compound: CN(CC1CCN(c2ccc3c(c2)C(=O)N(C2CCC(=O)NC2=O)C3=O)CC1)[C@H]1CC[C@H](n2cc3cc(NC(=O)c4cnn5cccnc45)c(OCC4CC4)cc3n2)CC1 (stereo partly shown) [Example 349]
observation type: DC50
experimental result: < 1 nM

compound: CC(C)Oc1cc2c(cc1NC(=O)c1cnn3cccnc13)CN(C1CCC(N(CC(F)F)C3CN(c4ccc5c(c4)C(=O)N(C4CCC(=O)NC4=O)C5=O)C3)CC1)C2=O (stereo not shown) [Example 331]
observation type: DC50
experimental result: 1 to 5 nM

compound: CC(C)Oc1cc2c(cc1NC(=O)c1cnn3cc(Cl)cnc13)CN(C1CCN(CC3CCN(c4ccc5c(c4)C(=O)N(C4CCC(=O)NC4=O)C5=O)CC3)CC1)C2=O (stereo not shown) [Example 43]
observation type: DC50
experimental result: 1 to 5 nM

Need DC50, item CC(C)Oc1nc2c(cc1NC(=O)c1cnn3cccnc13)CN(C1CCN(CC3CN(c4ccc5c(c4)C(=O)N(C4CCC(=O)NC4=O)C5=O)C3)CC1)C2=O (stereo not shown) [Example 398]
< 1 nM

Try this compound too: Cn1c(=O)n(C2CCC(=O)NC2=O)c2cccc(N3CCC(CN4CCC(n5cc6cc(NC(=O)c7cnn8cccnc78)c(OCC7CC7)cc6n5)CC4)CC3)c21 (stereo not shown) [Example 390]
< 1 nM

Try this compound too: O=C1CCC(N2C(=O)c3ccc(N4CC(CN5CCC(N6Cc7cc(NC(=O)c8cnn9cccnc89)c(OC8CC8)cc7C6=O)CC5)C4)cc3C2=O)C(=O)N1 (stereo not shown) [Example 84]
< 1 nM
